Reported IC50 values are given for each entry in this list.
System: IAV Jena/8178/2009 (8178/09)
protocol_text: microbe, parasite or virus in culture
Format: cell-based, Influenza A virus
experimental_conditions: Influenza A virus, MDCK, 48 h; read-out: IC50 of CPE IAV 8178/09
property_measured: IC50

>>> assay_value("O=c1cc(-c2ccc(O)c(O)c2O)oc2cc(O)cc(O)c12 [Compound 14, 2',3',4',5,7-pentahydroxyflavone]")
"> 100 µM"
>>> assay_value("COc1ccc(C2CC(=O)c3c(O)cc(O)cc3O2)cc1O (racemic) [Compound 10, (±)-hesperetin]")
"> 100 µM"
>>> assay_value("O=C1CC(c2ccc(O)c(O)c2)Oc2cc(O)cc(O)c21 (racemic) [Compound 11, (±)-eriodictyol]")
"78.3 µM"
>>> assay_value("COc1c(O)cc2c(c1O)C(=O)CC(c1ccccc1)O2 (stereo not shown) [Compound 8]")
"> 100 µM"

###

protocol_text: in vitro
experimental_conditions: dog
Reported CC50 values are given for each entry in this list.
property_measured: CC50 (µM)

>>> assay_value("CC(C)=CCC12Oc3cc(O)c(C4=CC5(C)CC(C4)c4ccc(O)cc4O5)c(O)c3C(=O)C1(O)Oc1cc(O)ccc12 (centres unmarked)")
28.1
>>> assay_value("CC(C)=CC[C@]12Oc3cc(O)c([C@H]4C=C(C)C[C@H](c5ccc(O)cc5O)[C@H]4C(=O)c4ccc(O)cc4O)c(O)c3C(=O)[C@@]1(O)Oc1cc(O)ccc12")
51.7
>>> assay_value("CC(C)=CCc1c(O)c(CC=C(C)C)c2[nH]c3c(O)cccc3c(=O)c2c1O")
0.63

###

protocol_text: in vitro
experimental_conditions: human
Reported CC50 values are given for each entry in this list.
property_measured: CC50 (µM)

>>> assay_value("CC(C)=CCc1c(O)c(CC=C(C)C)c2[nH]c3c(O)cccc3c(=O)c2c1O [Compound 34, atalphylline]")
60.4
>>> assay_value("CC(C)=CCC12Oc3cc(O)c(C4=CC5(C)CC(C4)c4ccc(O)cc4O5)c(O)c3C(=O)C1(O)Oc1cc(O)ccc12 (centres unmarked) [Compound 1, sanggenon B]")
32
>>> assay_value("CC1=C[C@H](c2c(O)ccc([C@@H]3CC(=O)c4c(O)cc(O)cc4O3)c2O)[C@@H](C(=O)c2ccc(O)cc2O)[C@H](c2ccc(O)cc2O)C1 [Compound 6, kuwanon L]")
94.4
>>> assay_value("CC(C)=CC[C@]12Oc3cc(O)c([C@H]4C=C(C)C[C@H](c5ccc(O)cc5O)[C@H]4C(=O)c4ccc(O)cc4O)c(O)c3C(=O)[C@@]1(O)Oc1cc(O)ccc12 [Compound 2, sanggenon C]")
32.6

###

protocol_text: in vitro
experimental_conditions: dog
property_measured: CC50 at 72 h (µM)

>>> assay_value("CC(C)=CCc1cc(C2CC(=O)c3ccc(O)cc3O2)ccc1O (racemic) [Compound 18, (±)-abyssinone II]")
59.2
>>> assay_value("COc1cc(C2CC(=O)c3c(cc(O)c(CC=C(C)C)c3O)O2)ccc1O (stereo not shown)")
63.4
>>> assay_value("CC(C)=CCc1c(O)c(CC=C(C)C)c2occ(-c3ccc(O)c(O)c3)c(=O)c2c1O")
20
>>> assay_value("CC(C)=CCc1c(O)c(CC=C(C)C)c2occ(-c3ccc(O)cc3)c(=O)c2c1O")
21.1
>>> assay_value("CC(C)=CCc1c(O)cc(O)c2c1O[C@@H](c1ccc(O)cc1)[C@H](O)C2=O (relative stereo)")
69
>>> assay_value("CC(C)=CCC/C(C)=C/Cc1c(O)cc2c(c1O)C(=O)[C@H](O)[C@@H](c1ccc(O)cc1)O2")
42.2
>>> assay_value("CC(C)=CCC/C(C)=C/Cc1c(O)ccc([C@@H]2CC(=O)c3c(O)cc(O)cc3O2)c1O")
42.1

Origin of the recorded values: paper PMC4891693
